Biological target: T1, rhIL-1RAcP/Fc Chimera (human, UniProt Q9NPH3 21-359)
T1 construct: also called P013_03; P013-03
T1 sequence (looked up): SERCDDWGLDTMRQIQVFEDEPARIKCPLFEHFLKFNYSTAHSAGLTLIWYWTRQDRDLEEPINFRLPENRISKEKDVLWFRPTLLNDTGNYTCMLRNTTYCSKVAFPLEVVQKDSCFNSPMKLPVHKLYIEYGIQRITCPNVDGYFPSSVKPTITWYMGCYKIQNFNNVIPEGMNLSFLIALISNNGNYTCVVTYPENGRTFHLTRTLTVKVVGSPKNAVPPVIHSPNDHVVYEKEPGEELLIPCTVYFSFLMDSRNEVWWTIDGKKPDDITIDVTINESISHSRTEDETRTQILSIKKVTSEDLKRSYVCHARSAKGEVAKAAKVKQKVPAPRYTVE
Experiment: ELISA, primary supernatant, coated hu-IL-1RAcP-Fc
Recorded measurements of hu-IL1RaP ELISA (OD), one per entry
Write down the numeric answer in OD and omit the unit.

I would be grateful if you could share the reported hu-IL1RaP ELISA (OD) for P013.S.02.B.E02 (antibody, V domains shown, rabbit monoclonal antibody; also called P013.A.00087.E09) VH: QSVEESGGRLVTPGTPLTLTCTVSGFSLNVYNMGWVRQAPGKGLEYIGIISSSGTTYYASWAKGRFTISKTSSTTVDLKITSLTTEDTATYFCARADGYTEGDYATYFNLWGQGTLVTVSS VL: DIVMTQTPASVSEPVGGTVTIKCQASQSITTWLAWYQQKPGQPPKLLIYQASALASGVSSRFIGSGYGTEFTLTISGVQSEDAATYYCQCTYGIGSGSSYGVAFGGGTEVVVK .
3.3

One more binder: P013.S.02.B.E03 (antibody, V domains shown, rabbit monoclonal antibody; also called P013.A.00091.A10) VH: QSVEESGGRLVTPGTPLTLTCTVSGFSLSDYYMGWVRQAPGKGLEWIGTIDGGGSTYYASWAKGRFTVSKTSTTVDLTITSPTTEDTAIYFCARNYYAGLSDVFFGWWGQGTLVTVSS VL: DVVMTQTPASVEAAVGGTVTIMCQASETIYSGLAWYQQKPGQPPKLLIYYTSSLASGVPSRFKGSGSGTEFTLTISDLESADAATYYCQTYYDSEGRSYGYNSFGGGTEVVVK
3.3

One more binder: P013.S.02.B.B02 (antibody, V domains shown, rabbit monoclonal antibody; also called P013.A.00045.H10) VH: LAQSGGGAEGGLVKPGGSLELCCEASGFSLSSSYWICWVRQAPGKGLEWIGCIYTGSSGNTYYASWVNGRFTLSRDIDRSTGCLQLNSLTAADTAMYYCARDANSHYMMNLWGQGTLVTVSS VL: ALVMTQTPSPVSAAVGGTVTINCQASEDIYSNLAWFQQKPGQPPKLLIYDASTLASGVPSRFSGSGSGTEFTLTISGLQSDDAATYYCLGVYTYISADGTLVYNAFGGGTEVVVR
3.4

One more binder: P013.S.01.B.H03 (antibody, V domains shown, rabbit monoclonal antibody; also called P013.A.00045.A02) VH: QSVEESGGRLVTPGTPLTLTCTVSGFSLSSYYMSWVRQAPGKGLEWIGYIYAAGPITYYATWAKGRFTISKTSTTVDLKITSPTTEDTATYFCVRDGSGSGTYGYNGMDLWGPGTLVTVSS VL: AYDMTQTPASVEAAVGGTVNIKCQASQSISNWLAWYQQKPGQPPKLLIYRASTLASGVSSRFKGSGSGTQFTLTISGVESADAATYYCQQGASTTDVDNVFGGGTEVVVK
3.5

One more binder: P013.S.02.B.A01 (antibody, V domains shown, rabbit monoclonal antibody; also called P013.A.00087.A07) VH: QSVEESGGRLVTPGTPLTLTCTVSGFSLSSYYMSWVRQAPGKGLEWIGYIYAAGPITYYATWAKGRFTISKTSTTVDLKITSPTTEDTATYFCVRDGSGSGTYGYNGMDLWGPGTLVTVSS VL: AYDMTQTPASVEAAVGGTVTIKCQASQSISNWLAWYQQKPGQRPKLLIYRASTLASGVSSRFKGSGSGTQFTLTISGVESADAATYYCQQGASTTDVDNVFGGGTEVVVK
3.8

The origin of these recorded values is patent US20190106487A1.
